Reference source: patent US5034419A

Assignment: determine reported i.p.: % prot. (inhibition of convulsions induced by picrotoxin) for the given compounds.
Assay: protection from convulsions induced by picrotoxin in mice
Format: in vivo, "Swiss" male mice
Conditions: 50 mg/kg i.p.; picrotoxin 24 mg/kg i.p. 30 minutes later; * p<0.05, ** p<0.01, *** p<0.001
Protocol: b) The psychotropic properties of the compounds were determined by the protection from convulsions induced by picrotoxin in mice, which was realized in accordance with a method derived from that of Krall and coll., "Epilepsia", 1978, 19, p. 409-428. The administration of picrotoxin to animals causes a convulsive attack characterized by a myoclonic extension syndrome followed by extension of the limbs leading to death of the animals. […]
One number for each entry, in %.

CCC(C[C@@H]1C[C@H]1c1ccccc1)(c1ccsc1)N(C)CC1CC1 (relative stereo)
50
CCC(C[C@@H]1C[C@H]1c1ccccc1)(c1cccs1)N(C)CC1CC1 (relative stereo)
50
CCC(C[C@@H]1C[C@H]1c1ccccc1)(c1ccco1)N(C)CC1CC1 (relative stereo)
50

Provide each entry's i.p.: % prot. (inhibition of convulsions induced by picrotoxin) from the list below.
1. CCC(CC=Cc1ccccc1)(c1ccccc1)N(C)CC1CC1 (centres unmarked)
2. CCC(CC=Cc1ccccc1)(c1cccs1)N(C)CC1CC1 (centres unmarked)

90
50

---

Biological target: PCP receptors
Assay: in vitro affinity for phencyclidine (PCP) receptors
Conditions: Table 3; read-out: PCP rec. IC50
observation.type: IC50
The answer consists of two parts: a number and, after it, its unit.

Worked cases, answers included:
CCC(CC=Cc1ccccc1)(c1cccs1)N(C)CC1CC1 (stereo not drawn)
6.28 µM
CCC(CC=Cc1ccccc1)(c1ccccc1)N(C)CCC1CC1 (stereo not drawn)
25.9 µM
CCC(CC=Cc1ccccc1)(c1ccccc1)N(C)CC1CCCCC1 (stereo not drawn)
50.8 µM
CN(CC1CC1)C(C)(CC=Cc1ccccc1)c1ccccc1 (stereo not drawn)
10.5 µM
CC(C)C(CC=Cc1ccccc1)(c1ccccc1)N(C)CC1CC1 (stereo not drawn)
14.2 µM

Here is the next item to consider.
Give its IC50 value. Item: CCC(CC=Cc1ccccc1)(c1ccccc1)N(C)CC1CC1 (stereo not drawn)
3.67 µM

---

Biological target: sigma receptors (Cavia porcellus, UniProt Q60492)
Construct: sigma receptors of the cerebral membranes of the guinea-pig used in this study; from tissue; host or cells: guinea-pig cerebral membranes
Sequence (Q60492 whole entry): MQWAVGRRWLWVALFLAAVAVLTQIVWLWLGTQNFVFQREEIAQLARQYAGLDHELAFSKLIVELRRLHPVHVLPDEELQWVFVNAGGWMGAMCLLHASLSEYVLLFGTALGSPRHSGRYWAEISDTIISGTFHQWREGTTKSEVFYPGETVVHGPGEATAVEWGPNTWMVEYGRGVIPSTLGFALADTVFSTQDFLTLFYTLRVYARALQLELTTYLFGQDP
Experiment: in vitro affinity for sigma receptors, competition with (+)[3H]SKF10,047
Type: binding, guinea-pig (cerebral membranes)
Conditions: Table 3; read-out: sigma rec. IC50
observation.type: IC50 (nM)
Answers are plain numbers, in nM.

CN(CC1CC1)C(C)(CC=Cc1ccccc1)c1ccccc1 (centres unmarked)
337

Give its IC50 value. Item: CC(C)C(CC=Cc1ccccc1)(c1ccccc1)N(C)CC1CC1 (centres unmarked)
669

---

Molecular target: sigma receptors (Cavia porcellus, UniProt Q60492)
Construct: sigma receptors of the cerebral membranes of the guinea-pig used in this study; from tissue; host or cells: guinea-pig cerebral membranes
Assay: in vitro affinity for sigma receptors, competition with (+)[3H]SKF10,047
Assay type: binding, guinea-pig (cerebral membranes)
Details: Table 2; (+)[3H]SKF10,047, guinea-pig cerebral membranes; read-out: IC50 (bonding affinity to sigma receptors)
Assignment: determine reported IC50 for the given compounds.
One number for each entry, in nM.

Worked cases, answers included:
CCC(CC=Cc1ccccc1)(c1ccccc1)N(C)CC1CCCCC1 (stereo not shown)
32
CCC(CC=Cc1ccccc1)(c1ccccc1)N(C)C[C@@H]1C[C@H]1c1ccccc1 (relative stereo)
246
CCC(CC=Cc1ccccc1)(c1cccs1)N(C)CC1CC1 (stereo not shown)
95

Provide each entry's IC50 from the list below.
1. CCC(C[C@@H]1C[C@H]1c1ccccc1)(c1cccs1)N(C)CC1CC1 (relative stereo)
2. CCC(CC=Cc1ccccc1)(c1ccccc1)N(C)CC1CCC1 (stereo not shown)
3. CCC(CC=Cc1ccccc1)(NC[C@@H]1C[C@H]1c1ccccc1)c1ccccc1 (relative stereo)
4. CCC(CC=Cc1ccccc1)(c1ccccc1)N(C)CCC1CC1 (stereo not shown)

1. 29
2. 50
3. 368
4. 21
